test system: K562; test: NCI tumour cell line growth inhibition, 48 h
Activity calls are given as the source filed them. No stated cut-off is given here; in the data, active = GI50 up to about 1.1 µM and inactive = higher.
Reply using exactly one outcome from active, inactive

Which result was noted for this compound in the test: `CCCN(CCC)C(=S)N/N=C(/C)c1ccccc1O`
inactive

Called result for `Nc1ccc(-c2nn3c(COc4ccc(Cl)cc4)nnc3s2)cc1`
inactive

Which outcome did this test record for the compound COC(=O)C1(F)C(=O)NC(=O)NC1O (stereo not given) ?
inactive

Record lookup: outcome of this test for C=C(C)COc1ccc2c(c1)CCC1C2CCC2(C)C(=O)/C(=N/O)CC12 (stereo not given) ?
inactive

Query: recorded result category for `Oc1cc(Cl)cc2cc(Br)cnc12` in this test
inactive

Record request — test call for `O=C(Nc1nc2c(=O)[nH]cnc2s1)c1ccccc1`
inactive

Each compound tested received a call. Report the one for `O=c1c2ccccc2n2n1Cc1ccccc1C2` .
inactive

Which result was noted for this compound in the test: `CN1CCN(c2nc3c(c(=O)n(C)c(=O)n3C)n2C)CC1`
inactive

What outcome does the record of this test show for C[As](C)SCC(NC(=O)CCC(N)C(=O)O)C(=O)NCC(=O)O.c1ccncc1 (stereo not given) ?
active

What call does the record list for `CC(C)(C)OC(=O)NCC(c1c[nH]c2ccc(Br)cc12)c1c[nH]c2ccc(Br)cc12` ?
inactive

I would be grateful if you could indicate the recorded call for `CCCCCC[N+](C)(C)Cc1ccc(C[N+](C)(C)CCCCCC)cc1` .
inactive

Hi, do you know how `COc1cccc(CCn2c(N)c(C#N)c3ccc([N+](=O)[O-])cc3c2=O)c1` came out in this test?
active

Record request — test call for `CN(C)CCCN1C(=O)N(CCCN(C)C)c2c3cc(O)ccc3nc3c([N+](=O)[O-])ccc1c23`
inactive

Would you mind telling me which call this test gave `NCCSc1nc2ccccc2c(=O)n1-c1ccccc1` ?
inactive

Lab log entry: `O=C(CCCCCCCCC(=O)N1C(=O)CC(=O)N(c2ccc(Cl)cc2)C1=S)N1C(=O)CC(=O)N(c2ccc(Cl)cc2)C1=S` — outcome as called in the assay?
inactive
